Procedure details: pharmacokinetics of SR 4554 in EMT-6 tumor-bearing mice (HPLC)
Type: in vivo, mouse
Condition description: mouse, in vivo, po; p.o. 90 mg/kg; read-out: bioavailability ratio relative to i.v., p.o.
Outcome measure: bioavailability (%)
# output: bare number, implied unit %

Lab note: O=C(Cn1ccnc1[N+](=O)[O-])NCC(O)C(F)(F)F (racemic) [SR 4554] gave bioavailability of 95.5

* * *

Procedure details: pharmacokinetics of SR 4554 in EMT-6 tumor-bearing mice (HPLC)
Format: in vivo, mouse
Condition description: mouse, tumor; read-out: tmax, tumor (converted)
Outcome measure: Tmax (min)
# output: bare number, implied unit min

Lab note: O=C(Cn1ccnc1[N+](=O)[O-])NCC(O)C(F)(F)F (racemic) [SR 4554] gave Tmax of 45
